study_target: T1, denatured bovine pancreatic Ribonuclease B (bovine, UniProt P61823 27-150)
T1 construct: mature; also called dRNase B; denatured RNase B
T1 sequence: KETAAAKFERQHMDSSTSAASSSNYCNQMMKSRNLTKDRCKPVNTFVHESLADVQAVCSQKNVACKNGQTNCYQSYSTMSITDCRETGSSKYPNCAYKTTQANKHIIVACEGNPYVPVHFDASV
assay_protocol: SPR (Biacore 3000), dRNase B immobilised on CM5; calculated from KD
property_name: ΔGBIND-EXP
Remember to quote the unit after the number.

Ask | ΔGBIND-EXP for wild-type PNGase F from Flavobacterium meningosepticum (enzyme, also called wtPNGase F; 1PNF) GIPAPADNTVNIKTFDKVKNAFGDGLSQSAEGTFTFPADVTAVKTIKMFIKNECPNKTCDEWDRYANVYVKNKTTGEWYEIGRFITPYWVGTEKLPRGLEIDVTDFKSLLSGNTELKIYTETWLAKGREYSVDFDIVYGTPDYKYSAVVPVVQYNKSSIDGVPYGKAHTLALKKNIQLPTNTEKAYLRTTISGWGHAKPYDAGSRGCAEWCFRTHTIAINNSNTFQHQLGALGCSANPINNQSPGNWTPDRAGWCPGMAVPTRIDVLNNSLIGSTFSYEYKFQNWTNNGTNGDAFYAISSFVIAKSNTPISAPVVTNLDPHHHHHH ?
Reply | -7.1 kcal/mol
